These measurements were taken from PubChem BioAssay AID2060489.

System: 922993-354-T-J3-PDC complex spheroids, viability
Experiment: Anticancer human tumor 922993-354-T-J3-PDC patient-derived endometrial carcinoma cell line growth inhibition [GQUAD]
Settings: second compound 1 µM; first compound 0.316 µM; stronger effect = lower value
From the text: DNA G-quadruplex Stabilizer Agents in Combinations in Complex Spheroids A high-throughput screen of multi-cell type tumor spheroids was designed to identify active combinations of DNA G-quadruplex stabilizer agents and targeted small molecules. […] Compounds. […] If the clinical Cmax for an agent had not been determined, the highest concentration tested was 10 microM. […]
Recorded viability, T/C for the following molecules

Molecule	viability, T/C (%)
C=CCn1c(=O)c2cnc(Nc3ccc(N4CCN(C)CC4)cc3)nc2n1-c1cccc(C(C)(C)O)n1 + Cc1[nH]c2ccc(F)cc2c1-c1nc2c3cccnc3c3ncccc3c2[nH]1	101
O=C(NO)c1cnc(N2CCN(S(=O)(=O)c3ccc4ccccc4c3)CC2)nc1 + Cc1[nH]c2ccc(F)cc2c1-c1nc2c3cccnc3c3ncccc3c2[nH]1	68.7
CC(=O)O[C@H]1C(=O)[C@@]2(C)[C@H]([C@H](OC(=O)c3ccccc3)[C@]3(O)C[C@H](OC(=O)[C@H](O)[C@@H](NC(=O)c4ccccc4)c4ccccc4)C(C)=C1C3(C)C)[C@]1(OC(C)=O)CO[C@@H]1C[C@@H]2O + Cc1cnc(CNC(=O)c2c(=O)c3ccc(N4CCCN(C)CC4)nc3n3c2sc2ccccc23)cn1	51.3
COc1cc(C2c3cc4c(cc3C(OC3OC5COC(C)OC5C(O)C3O)C3COC(=O)C23)OCO4)cc(OC)c1O (stereo not given) + Cc1[nH]c2ccc(F)cc2c1-c1nc2c3cccnc3c3ncccc3c2[nH]1	96.6
Nc1ccn(C2OC(CO)C(O)C2(F)F)c(=O)n1 (stereo not given) + CN(C)c1ccc(Nc2c3ccc(NC(=O)CCN4CCCC4)cc3nc3cc(NC(=O)CCN4CCCC4)ccc23)cc1	12

###

Tested on: 922993-354-T-J3-PDC complex spheroids, viability
Test: Anticancer human tumor 922993-354-T-J3-PDC cell line growth inhibition [GQUAD];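 also: spheroids exposed to compounds for seven days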
Conditions: curve of first compound; second compound 10 µM
Property: IC50

Molecule	Observed value
CC1COCCN1c1cc(C2(S(C)(=N)=O)CC2)nc(-c2ccnc3[nH]ccc23)n1 (stereo not given) + CN(C)c1ccc(Nc2c3ccc(NC(=O)CCN4CCCC4)cc3nc3cc(NC(=O)CCN4CCCC4)ccc23)cc1	> 10000 nM
CC1COCCN1c1cc(C2(S(C)(=N)=O)CC2)nc(-c2ccnc3[nH]ccc23)n1 (stereo not given) + Cc1cnc(CNC(=O)c2c(=O)c3ccc(N4CCCN(C)CC4)nc3n3c2sc2ccccc23)cn1	< 31.6 nM
Cn1ncnc1[C@H]1c2n[nH]c(=O)c3cc(F)cc(c23)N[C@@H]1c1ccc(F)cc1 + Cc1[nH]c2ccc(F)cc2c1-c1nc2c3cccnc3c3ncccc3c2[nH]1	> 316 nM
CC(C)(O)C1CCC(Nc2ccc3ncc(-c4cccc(C(F)(F)F)c4)n3n2)CC1 (stereo not given) + CN(C)c1ccc(Nc2c3ccc(NC(=O)CCN4CCCC4)cc3nc3cc(NC(=O)CCN4CCCC4)ccc23)cc1	> 10000 nM
O=C(NO)c1cnc(N2CCN(S(=O)(=O)c3ccc4ccccc4c3)CC2)nc1 + Cc1cnc(CNC(=O)c2c(=O)c3ccc(N4CCCN(C)CC4)nc3n3c2sc2ccccc23)cn1	< 31.6 nM
